Target: NanoLuc VHL fusion protein (Homo sapiens (Human), UniProt P40337)
Sequence (P40337 whole entry, looked up, the tested form may be a part): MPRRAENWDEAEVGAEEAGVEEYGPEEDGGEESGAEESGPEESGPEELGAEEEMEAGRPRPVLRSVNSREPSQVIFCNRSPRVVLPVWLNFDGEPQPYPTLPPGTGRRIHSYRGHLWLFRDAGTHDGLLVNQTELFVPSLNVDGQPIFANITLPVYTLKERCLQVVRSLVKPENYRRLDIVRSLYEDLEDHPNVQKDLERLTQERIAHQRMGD
Sequence (Q15370 whole entry partner, looked up, the tested form may be a part): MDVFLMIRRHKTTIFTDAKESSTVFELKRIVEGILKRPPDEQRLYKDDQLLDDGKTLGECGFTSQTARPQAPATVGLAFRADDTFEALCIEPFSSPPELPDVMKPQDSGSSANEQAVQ
Sequence (Q15369 whole entry partner, looked up, the tested form may be a part): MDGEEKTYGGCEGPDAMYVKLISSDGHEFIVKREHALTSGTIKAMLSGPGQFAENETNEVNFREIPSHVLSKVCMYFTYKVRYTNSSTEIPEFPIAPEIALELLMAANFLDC
Experiment: VHL HEK-293 BRET Assay (NanoBRET Target Engagement)
Assay type: cell-based
Conditions: geometric mean where more than one measurement
Protocol: The VHL NanoBRET™ Target Engagement Assay analyzes the apparent affinity of test compounds for VHL in cells by competitive displacement of a VHL NanoBRET™ tracer reversibly bound to a NanoLuc® VHL fusion protein stably expressed in the cells. […] The raw BRET ratio values were calculated by dividing the acceptor emission value (610 nm) by the donor emission value (460 nm) for each sample. […] Percentage inhibition was calculated relative to the Minimum Signal control and Maximum Signal control wells. […]
valueKind: IC50 (µM)
I only need the number, in µM, no unit after it.

Examples with answers:
compound	valueKind	numericReadout
Cc1cc([C@H](C(=O)N2C[C@H](O)C[C@H]2C2=NO[C@@](C)(c3ccc(Br)cc3)N2)C(C)C)on1 (mixture of isomers)	IC50	2.94
CCN1N=C([C@@H]2C[C@@H](O)CN2C(=O)C(c2cc(C)no2)C(C)C)NC1(C)C (single isomer, unassigned) [Example 115.1]	IC50	100
Cc1cc([C@@H](C(=O)N2C[C@H](O)CC2C2=NOC3(CCCc4ccccc43)N2)C(C)C)on1 (single isomer, unassigned) [Example 131.1]	IC50	100

**Q:** What does the record list as IC50 for CC(=O)N1CCC[C@H]1C(=O)N1C[C@H](O)CC1C1=NC(=O)[C@](C)(c2ccc(-c3scnc3C)cc2)N1 (single isomer, unassigned) ?
**A:** 100

**Q:** What does the record list as IC50 for Cc1cc(C(C(=O)N2C[C@H](O)C[C@H]2C2=NO[C@](C)(c3ccc(-c4ccccc4F)cc3)N2)C(C)C)on1 (single isomer, unassigned) [Example 139.1] ?
**A:** 21.7

**Q:** What does the record list as IC50 for Cc1noc(C(C(=O)N2C[C@H](O)CC2C2=NC(=O)[C@](C)(c3ccc(-c4scnc4C)cc3)N2)C(C)C)n1 (single isomer, unassigned) [Example 117.3] ?
**A:** 100

###

molecular target: VHL Elongin B/C complex (Homo sapiens (Human), UniProt P40337); assay: Fluorescence Polarization (FP) VHL Binding Assay; conditions: VHL binding, FP assay; geometric mean where more than one measurement
Sequence (P40337 whole entry, looked up): as the sequence (P40337 whole entry, looked up, the tested form may be a part) above
Sequence (Q15370 whole entry partner, looked up): as the sequence (Q15370 whole entry partner, looked up, the tested form may be a part) above
Sequence (Q15369 whole entry partner, looked up): as the sequence (Q15369 whole entry partner, looked up, the tested form may be a part) above
valueKind: IC50

Examples with answers:
> print(dat)
                                   molecule  valuekind   result
1  Cc1cc(C(C(=O)N2C[C@H](O)C[C@H]2C2=NN(c3ccccc3)C(C)(C)N2)C(C)C)on1 (single isomer, unassigned) [Example 135.2]       IC50  9.32 µM
2  Cc1cc([C@H](C(=O)N2C[C@H](O)C[C@H]2C2=NO[C@@](c3ccccc3)(C(F)(F)F)N2)C(C)C)on1 (mixture of isomers) [Example 114.1]       IC50   400 µM

**Q:** What does the record list as IC50 for Cc1cc(C(C(=O)N2C[C@H](O)CC2C2=NS(=O)(=O)CN2)C(C)C)on1 (single isomer, unassigned) [Example 137.2] ?
**A:** 47.3 µM

###

Overview of recorded IC50 for various compounds
molecular target: NanoLuc VHL fusion protein (Homo sapiens (Human)); test: VHL HEK-293 BRET Assay (NanoBRET Target Engagement); assay type: cell-based; details: geometric mean where more than one measurement

compound	IC50
Cc1ncsc1-c1ccc([C@]2(C)NC(C3C[C@@H](O)CN3C(=O)C3N(S(C)(=O)=O)CCC3(C)C)=NC2=O)cc1 (single isomer, unassigned) [Example 125.1]	100 µM
Cc1noc(C(C(=O)N2C[C@H](O)CC2C2=NC(=O)[C@](C)(c3ccc(-c4scnc4C)cc3)N2)C(C)C)n1 (single isomer, unassigned) [Example 117.2]	1.9 µM
Cc1cc([C@H](C(=O)N2C[C@H](O)C[C@H]2C2=NOC(c3ccc(Br)cc3)(C(F)(F)F)N2)C(C)C)on1 (single isomer, unassigned) [Example 133.4]	52.3 µM
Cc1cc(C(C(=O)N2C[C@H](O)CC2C2=NC(=O)[C@](C)(c3ccc(-c4scnc4C)cc3)N2)C(C)C)sn1 (single isomer, unassigned) [Example 119.4]	100 µM
Cc1cc([C@H](C(=O)N2C[C@H](O)C[C@H]2C2=NOC3(CCc4ccccc43)N2)C(C)C)on1 (single isomer, unassigned) [Example 130.3]	16.2 µM

**Q:** What does the record list as IC50 for "Cc1cc([C@H](C(=O)N2C[C@H](O)C[C@H]2C2=NOC(c3ccccc3)(c3ccccc3)N2)C(C)C)on1" ?
**A:** 39.4 µM

**Q:** What does the record list as IC50 for Cc1cc([C@H](C(=O)N2C[C@H](O)C[C@H]2C2=NOC(C)(c3ccc(-c4scnc4C)cc3)N2)C(C)C)on1 (single isomer, unassigned) [Example 129.3] ?
**A:** 0.304 µM

**Q:** What does the record list as IC50 for Cc1cc(C(C(=O)N2C[C@H](O)C[C@H]2C2=NN(CC(F)(F)F)C(C)(C)N2)C(C)C)on1 (single isomer, unassigned) [Example 134.1] ?
**A:** 100 µM

**Q:** What does the record list as IC50 for Cc1noc(C(C(=O)N2C[C@H](O)CC2C2=NC(=O)[C@](C)(c3ccc(-c4scnc4C)cc3)N2)C(C)C)n1 (single isomer, unassigned) [Example 117.1] ?
**A:** 100 µM

**Q:** What does the record list as IC50 for CC/C(=C(\c1ccc(O)cc1)c1ccc(OCCN(C)C(=O)CCCOCCOc2cc(C(C(=O)N3C[C@H](O)CC3C3=NC(=O)[C@](C)(c4ccc(-c5scnc5C)cc4)N3)C(C)C)on2)cc1)c1ccccc1 (single isomer, unassigned) [Example 1003.1] ?
**A:** ≥ 100 µM

**Q:** What does the record list as IC50 for Cc1cc([C@H](C(=O)N2C[C@H](O)C[C@H]2C2=NOC(C)(c3ccccc3)N2)C(C)C)on1 (single isomer, unassigned) [Example 128.3] ?
**A:** 10.7 µM
